# Tested on: A549
# procedure.summary: MTT anti-proliferative assay, A549
# conditions.used: Homo sapiens, A549, 48 h, read-out: IC50 A549
Entries whose IC50 is below 30 µM take Met; entries at or above 30 µM take Not met.

Record excerpt, results attached:
CC(O)CNC(=O)CCCCCNC(=O)c1ccc(I)cc1 (stereo not shown) [a5]; Not met
CC(O)CNC(=O)CCCCCNC(=O)c1ccc([N+](=O)[O-])cc1 (stereo not shown) [a7]; Not met
O=C(CCCCCNC(=O)c1ccc(-c2ccccc2)cc1)NCCO [b8]; Met
O=C(CCCCCNC(=O)c1ccccc1)NCCO [b1]; Not met
Cc1cc(C)cc(C(=O)NCCCCCC(=O)NCCO)c1 [b7]; Not met

Data request: Determine if O=C(CCCCCNC(=O)c1ccc2c(c1)OCO2)NCCO [b10] shows IC50 strictly lower than 30 µM.
Data returned: Met

Data request: Determine if Cc1ccc(C(=O)NCCCCCC(=O)NCCO)cc1 [b6] shows IC50 strictly lower than 30 µM.
Data returned: Met

Data request: Determine if Cc1ccc(C(=O)NCCCCCC(=O)NCC(C)O)cc1 (stereo not shown) [a6] shows IC50 strictly lower than 30 µM.
Data returned: Not met

Data request: Determine if O=C(CCCCCNC(=O)c1ccc(I)cc1)NCCO [b5] shows IC50 strictly lower than 30 µM.
Data returned: Not met

Data request: Determine if CC(O)CNC(=O)CCCCCNC(=O)c1ccc2ccccc2c1 (stereo not shown) [a11] shows IC50 strictly lower than 30 µM.
Data returned: Met

Data request: Determine if CC(O)CNC(=O)CCCCCNC(=O)c1ccc(-c2ccccc2)cc1 (stereo not shown) [a10] shows IC50 strictly lower than 30 µM.
Data returned: Met

Data request: Determine if O=C(CCCCCNC(=O)c1ccc2ccccc2c1)NCCO [b12] shows IC50 strictly lower than 30 µM.
Data returned: Not met

Data request: Determine if CC(O)CNC(=O)CCCCCNC(=O)c1ccc2c(c1)OCO2 (stereo not shown) [a12] shows IC50 strictly lower than 30 µM.
Data returned: Met

====

# System: Hela
# procedure.summary: MTT anti-proliferative assay, Hela
# conditions.used: Homo sapiens, 48 h, read-out: IC50 Hela
property.measured: IC50 (µM)
Write the answer as a number in µM, unit excluded.

CC(O)CNC(=O)CCCCCNC(=O)c1ccc(I)cc1 (stereo not shown) [a5]; 35.8
O=C(CCCCCNC(=O)c1ccc2ccccc2c1)NCCO [b12]; 76.4
CC(O)CNC(=O)CCCCCNC(=O)c1ccc2ccccc2c1 (stereo not shown) [a11]; 21.8

Now for a further compound.
Data request: Quick check: IC50 of CC(O)CNC(=O)CCCCCNC(=O)c1ccc2c(c1)OCO2 (stereo not shown) [a12] ?
Data returned: 35.6

====

# Test system: WI-38
# procedure.summary: MTT cytotoxicity assay, normal cell line WI-38
# conditions.used: Homo sapiens, WI-38, 48 h, read-out: IC50 WI-38
Recorded measurements of pIC50, one per entry
// field semantics: pIC50 = negative decimal log of concentration (mol/L)

CC(O)CNC(=O)CCCCCNC(=O)c1ccc2ccccc2c1 (stereo not shown); 3.96
O=C(CCCCCNC(=O)c1ccc2ccccc2c1)NCCO; 3.79
O=C(CCCCCNC(=O)c1ccc2c(c1)OCO2)NCCO; 3.71
Cc1ccc(C(=O)NCCCCCC(=O)NCCO)cc1; 3.84
O=C(CCCCCNC(=O)c1ccccc1)NCCO; 3.71

Data request: Hi! What's the reported pIC50 for CC(O)CNC(=O)CCCCCNC(=O)c1ccc([N+](=O)[O-])cc1 (stereo not shown) on WI-38?
Data returned: 3.68

Data request: Hi! What's the reported pIC50 for `O=C(CCCCCNC(=O)c1ccc(-c2ccccc2)cc1)NCCO` on WI-38?
Data returned: 4.02

====

# Tested on: Hela
# procedure.summary: MTT anti-proliferative assay, Hela
# conditions.used: Homo sapiens, 48 h, read-out: IC50 Hela
Entries whose IC50 is below 60 µM take MET; entries at or above 60 µM take NOT MET.

Data request: Determine if `O=C(CCCCCNC(=O)c1ccc2c(c1)OCO2)NCCO` shows IC50 strictly lower than 60 µM.
Data returned: MET

Data request: Determine if `O=C(CCCCCNC(=O)c1ccccc1)NCCO` shows IC50 strictly lower than 60 µM.
Data returned: NOT MET

Data request: Determine if CC(O)CNC(=O)CCCCCNC(=O)c1ccc([N+](=O)[O-])cc1 (stereo not drawn) shows IC50 strictly lower than 60 µM.
Data returned: MET

Data request: Determine if Cc1ccc(C(=O)NCCCCCC(=O)NCC(C)O)cc1 (stereo not drawn) shows IC50 strictly lower than 60 µM.
Data returned: MET

Data request: Determine if `Cc1cc(C)cc(C(=O)NCCCCCC(=O)NCCO)c1` shows IC50 strictly lower than 60 µM.
Data returned: NOT MET

====

Recorded measurements of melting point, one per entry

Data request: Quick check: melting point of O=C(CCCCCNC(=O)c1ccc(-c2ccccc2)cc1)NCCO [b8] ?
Data returned: 147.6 to 148.5 °C

Data request: Quick check: melting point of CC(O)CNC(=O)CCCCCNC(=O)c1ccc(F)cc1 (stereo not shown) [a1] ?
Data returned: 99.3 to 100.8 °C

Data request: Quick check: melting point of O=C(CCCCCNC(=O)c1ccc(F)cc1)NCCO [b2] ?
Data returned: 131.2 to 132.9 °C

Data request: Quick check: melting point of O=C(CCCCCNC(=O)c1ccc(Cl)cc1)NCCO [b3] ?
Data returned: 112.4 to 115.9 °C

Data request: Quick check: melting point of CN(C)c1ccc(C(=O)NCCCCCC(=O)NCCO)cc1 [b11] ?
Data returned: 120.4 to 122.3 °C

Data request: Quick check: melting point of O=C(CCCCCNC(=O)c1ccc2ccccc2c1)NCCO [b12] ?
Data returned: 115.1 to 117.8 °C

Data request: Quick check: melting point of Cc1ccc(C(=O)NCCCCCC(=O)NCC(C)O)cc1 (stereo not shown) [a6] ?
Data returned: 114.2 to 116.8 °C

Data request: Quick check: melting point of CC(O)CNC(=O)CCCCCNC(=O)c1ccc(I)cc1 (stereo not shown) [a5] ?
Data returned: 148.7 to 150.2 °C

Data request: Quick check: melting point of CC(O)CNC(=O)CCCCCNC(=O)c1ccc2c(c1)OCO2 (stereo not shown) [a12] ?
Data returned: 123.6 to 125.3 °C

Data request: Quick check: melting point of CC(O)CNC(=O)CCCCCNC(=O)c1ccc(-c2ccccc2)cc1 (stereo not shown) [a10] ?
Data returned: 140.3 to 142.6 °C

====

# System: MCF-7
# procedure.summary: MTT anti-proliferative assay, MCF-7
# conditions.used: Homo sapiens, MCF7, 48 h, read-out: IC50 MCF-7
Entries whose IC50 is below 40 µM take Satisfied; entries at or above 40 µM take Not satisfied.

Record excerpt, results attached:
CC(O)CNC(=O)CCCCCNC(=O)c1ccc(-c2ccccc2)cc1 (stereo not drawn); Not satisfied
O=C(CCCCCNC(=O)c1ccccc1)NCCO; Not satisfied
Cc1ccc(C(=O)NCCCCCC(=O)NCCO)cc1; Not satisfied

Data request: Determine if `O=C(CCCCCNC(=O)c1ccc2ccccc2c1)NCCO` shows IC50 strictly lower than 40 µM.
Data returned: Not satisfied

Data request: Determine if CC(O)CNC(=O)CCCCCNC(=O)c1ccc2ccccc2c1 (stereo not drawn) shows IC50 strictly lower than 40 µM.
Data returned: Satisfied

====

# Tested on: Hela
# procedure.summary: MTT anti-proliferative assay, Hela
# conditions.used: Homo sapiens, 48 h, read-out: IC50 Hela
property.measured: pIC50
// field semantics: pIC50 = negative decimal log of concentration (mol/L)

Solved cases below.
CC(O)CNC(=O)CCCCCNC(=O)c1ccc(-c2ccccc2)cc1 (stereo not drawn); 4.42
O=C(CCCCCNC(=O)c1ccc(I)cc1)NCCO; 4.21

Now for a further molecule.
Data request: Hi! What's the reported pIC50 for `O=C(CCCCCNC(=O)c1ccc(-c2ccccc2)cc1)NCCO` on Hela?
Data returned: 4.86

====

Recorded measurements of IC50, one per entry
# System: WI-38
# procedure.summary: MTT cytotoxicity assay, normal cell line WI-38
# conditions.used: Homo sapiens, WI-38, 48 h, read-out: IC50 WI-38
Write the answer as a number in µM, unit excluded.

Solved cases below.
CC(O)CNC(=O)CCCCCNC(=O)c1ccc(-c2ccccc2)cc1 (stereo not drawn); 126
Cc1ccc(C(=O)NCCCCCC(=O)NCC(C)O)cc1 (stereo not drawn); 97.2
CC(O)CNC(=O)CCCCCNC(=O)c1ccc(I)cc1 (stereo not drawn); 158

Data request: Hi! What's the reported IC50 for `O=C(CCCCCNC(=O)c1ccc(I)cc1)NCCO` on WI-38?
Data returned: 130

Data request: Hi! What's the reported IC50 for CC(O)CNC(=O)CCCCCNC(=O)c1ccc2c(c1)OCO2 (stereo not drawn) on WI-38?
Data returned: 147

Data request: Hi! What's the reported IC50 for `Cc1cc(C)cc(C(=O)NCCCCCC(=O)NCCO)c1` on WI-38?
Data returned: 184

Cited source: paper PMC7174758
